- measuredOn: Human PKMYT1 (Homo sapiens)
- Construct: Human PKMYT1 75-362 was cloned as a TEV cleavable 6xHis fusion; 6xHis (TEV cleavable) (cleaved yes); made in house; host or cells: bacterial cells
- Sequence (Q99640 75-362): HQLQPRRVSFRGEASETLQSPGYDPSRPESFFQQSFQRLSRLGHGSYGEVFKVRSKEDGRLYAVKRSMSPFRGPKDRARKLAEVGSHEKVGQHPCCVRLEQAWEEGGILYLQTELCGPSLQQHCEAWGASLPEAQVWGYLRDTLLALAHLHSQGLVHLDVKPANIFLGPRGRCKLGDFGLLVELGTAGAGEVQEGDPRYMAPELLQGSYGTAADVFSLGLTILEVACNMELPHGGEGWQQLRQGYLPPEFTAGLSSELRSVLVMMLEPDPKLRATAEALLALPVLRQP
- assayInfo: PKMYT1 biochemical ADP-Glo enzymatic assay
- assaySetup: ADP-Glo; 15 nM PKMYT1 kinase domain, 500 µM ATP, 60 minutes at 26° C.; banded
Assignment: determine reported IC50 for the given compounds.

See these solved cases before continuing.
structureSmiles	IC50
Cc1ccc(O)c(C)c1NC(=O)c1cnc(Nc2c3ccncc3nn2C)s1	< 50 nM
Cc1nc(CNc2ncc(C(=O)Nc3c(C)ccc(O)c3C)s2)no1	1000 to 11000 nM
Cc1ccc(O)c(C)c1NC(=O)c1cnc(N[C@@H]2CCN(C(=O)OC(C)(C)C)C2)s1	1000 to 11000 nM
CCCNC(=O)Cn1ccc(Nc2ncc(C(=O)Nc3c(C)ccc(O)c3C)s2)n1	< 50 nM
Cc1ccc(O)c(C)c1NC(=O)c1cnc(NCC2CCN(C(=O)CC(C)(C)C)CC2)s1	50 to 1000 nM

Hey, can you go through the list below and give me IC50 for every item?
1. Cc1ccc(O)c(C)c1NC(=O)c1cnc(Nc2ccn(CC(=O)N3CCN(C(=O)N(C)C)CC3)n2)s1
2. Cc1ccc(O)c(C)c1NC(=O)c1cnc(Nc2cc(C(=O)N(C)C)n(C)n2)s1

< 50 nM
50 to 1000 nM

Entry source: patent US20260297042A1
